assay name: Toxicity liver stage against HepG2, at 10uM
Assay type: cell-based
Set-up: test concentration 10 uM, cell line HepG2-A16-CD81EGFP
condition info: human, HepG2-A16-CD81EGFP cells; read-out: INHIBITION
cytotoxicity at 10 µM by entry:
Number in %, nothing else.

CN(Cc1cnn(C)c1)Cc1nc(CCc2ccccc2)no1 | -26.1

What value of cytotoxicity at 10 µM has been reported for the following molecule? `Cc1ccc(C(=O)N2CC[C@H]3[C@H]2CCN3CC2CCOCC2)cn1`
-73.3

What value of cytotoxicity at 10 µM has been reported for the following molecule? `O=C(N1CCOCC1)[C@@]12CCO[C@@H]1CCN(Cc1ccncc1)C2`
-1.2

What value of cytotoxicity at 10 µM has been reported for the following molecule? `CCS(=O)(=O)CCNC(=O)C1(c2cccc(Cl)c2)CC1`
-4

What value of cytotoxicity at 10 µM has been reported for the following molecule? c1cnc(N2CCC3(CCCN(CC4CCCCC4)C3)C2)cn1 (centres undefined)
-1.62

What value of cytotoxicity at 10 µM has been reported for the following molecule? CC1N(C)C(=O)COC12CCN(C(=O)Cc1ccsc1)CC2 (centres undefined)
2.81

What value of cytotoxicity at 10 µM has been reported for the following molecule? CCc1nc(CN2CCCN(C(=O)CC(C)OC)CC2)cs1 (centres undefined)
-24.7

What value of cytotoxicity at 10 µM has been reported for the following molecule? `COC(=O)c1cccc(-c2c[nH]c(C)n2)c1`
-0.734
